Cited source: patent EP1203770A1

# TARGET SYSTEM: HIV-1 protease (Human immunodeficiency virus type 1 group M subtype B, UniProt P04585)
# Construct: The protease (or proteinase), consisting of only 99 amino acids, is among the smallest enzymes known
# TEST DETAILS: In vitro HIV protease inhibitory assay (HIV Protease FITC Assay)
# Assay type: biochemical
# EXPERIMENTAL PARAMETERS: read-out: HIV-1 FITC Ki
EXPERIMENTAL READOUT: Ki (µM)

molecule="O=C(CCn1ccc2ccccc21)Nc1cccc(C(c2c(O)cc(C(CC3CC3)CC3CC3)oc2=O)C2CC2)c1 (centres unmarked)" value=0.096
molecule=O=c1oc(C(CC2CC2)CC2CC2)cc(O)c1C(Cc1ccccc1)Cc1ccccc1 value=0.033
molecule="CCC(C1=C(O)CC(CCc2ccccc2)(CC(C)C)OC1=O)c1ccccc1 (centres unmarked)" value=0.0394
molecule="CCC(CCOC1CCCCO1)c1cc(O)c(C(c2ccccc2)C2CC2)c(=O)o1 (centres unmarked)" value=0.084
molecule="O=c1oc(C(CC2CC2)CC2CCCOC2)cc(O)c1C(c1ccccc1)C1CC1 (centres unmarked)" value=0.069
molecule="CCC(CCCCl)c1cc(O)c(C(c2ccccc2)C2CC2)c(=O)o1 (centres unmarked)" value=0.044
molecule="O=c1oc(CCc2ccccn2)cc(O)c1C(c1ccccc1)C1CC1 (centres unmarked)" value=0.425
molecule="CCC(Cc1ccc(OC)cc1)c1cc(O)c(C(c2ccccc2)C2CC2)c(=O)o1 (centres unmarked)" value=0.172
